Species on record: Canis familiaris
ASSAY_EXPLANATION: Compound was evaluated for conduction time from stimulating to intracellular recording electrode at 10 uM concentration on Isolated Canine Purkinje Fibers
Type: functional, Canis lupus familiaris, Purkinje fiber
Reported log10(CT) values for a set of compounds
A value of 2 here means CT of 100 in ms, since values are log10.

Record excerpt, results attached:
- CCN(CC)c1nc(NCCNC(=O)c2ccc(OC)cc2)c2ccccc2n1.O=C(O)C(=O)O: 1.23
- CCN(CC)c1nc(NCCNC(=O)c2cc(OC)c(OC)c(OC)c2)c2ccccc2n1: 2.09
- CCN(CC)c1nc(NCCNC(=O)c2cc(O)c(O)c(O)c2)c2ccccc2n1.CS(=O)(=O)O: 0.85

Which log10(CT) reading was recorded for the compound CCN(CC)c1nc(NCCNC(=O)c2ccc(C(F)(F)F)cc2)c2ccccc2n1.O=C(O)C(=O)O ?
1.90

Here is the next compound: CCN(CC)c1nc(NCCNC(=O)c2ccccc2)c2ccccc2n1.O=C(O)C(=O)O
2.08

Here is the next compound: CCN(CC)c1nc(NCCNC(=O)c2ccc(F)cc2)c2ccccc2n1.O=C(O)C(=O)O
1.86

Here is the next compound: CCN(CC)c1nc(NCCNC(=O)c2ccccc2OC)c2ccccc2n1
1.85

* * *

ASSAY_EXPLANATION: Oxidation potential as carbon paste disc electrode against a Ag/AgCl reference electrode
RECORDED_METRIC: E1/2

Record excerpt, results attached:
- CCN(CC)c1nc(NCCNC(=O)c2cc(OC)c(O)c(OC)c2)c2ccccc2n1: 340 mV
- CCN(CC)c1nc(NCCNC(=O)c2cc(OC)c(OC)c(OC)c2)c2ccccc2n1: > 600 mV

Which E1/2 reading was recorded for the compound CCN(CC)c1nc(NCCNC(=O)c2cc(O)c(OC)c(OC)c2)c2ccccc2n1.CS(=O)(=O)O ?
440 mV

Here is the next compound: CCN(CC)c1nc(NCCNC(=O)c2cc(O)c(O)c(O)c2)c2ccccc2n1.CS(=O)(=O)O
15 mV

Here is the next compound: CCN(CC)c1nc(NCCNC(=O)c2cc(O)c(O)c(OC)c2)c2ccccc2n1
130 mV

Here is the next compound: CCN(CC)c1nc(NCCNC(=O)c2cc(O)c(OC)c(O)c2)c2ccccc2n1
320 mV

* * *

ASSAY_EXPLANATION: Plasma concentration in dogs when measured 1 and 5 hours following initiation of reperfusion at 30 min
Format: ADME, organism-based, Canis lupus familiaris
EXPERIMENTAL_CONDITIONS: dog
RECORDED_METRIC: concentration at 30 min (ng/mL)
State just the number; it will be interpreted in ng/mL.

Which concentration at 30 min reading was recorded for the molecule CCN(CC)c1nc(NCCNC(=O)c2cc(O)c(O)c(O)c2)c2ccccc2n1.CS(=O)(=O)O ?
240

* * *

Species on record: Canis familiaris
ASSAY_EXPLANATION: Maximal rate of depolarization at 10 uM concentration on Isolated Canine Purkinje Fibers
Assay type: functional
EXPERIMENTAL_CONDITIONS: Canis lupus familiaris, Purkinje fiber
RECORDED_METRIC: Vmax (V s-1)
State just the number; it will be interpreted in V s-1.

- CCN(CC)c1nc(NCCNC(=O)c2ccccc2OC)c2ccccc2n1: -71
- CCN(CC)c1nc(NCCNC(=O)c2ccc(OC)cc2)c2ccccc2n1.O=C(O)C(=O)O: -30
- CCN(CC)c1nc(NCCNC(=O)c2cc(O)c(O)c(O)c2)c2ccccc2n1.CS(=O)(=O)O: -2
- CCN(CC)c1nc(NCCNC(=O)c2cc(OC)c(OC)c(OC)c2)c2ccccc2n1: -40
- CCN(CC)c1nc(NCCNC(=O)c2ccc(C(F)(F)F)cc2)c2ccccc2n1.O=C(O)C(=O)O: -62

Which Vmax reading was recorded for the compound CCN(CC)c1nc(NCCNC(=O)c2ccccc2)c2ccccc2n1.O=C(O)C(=O)O ?
-43

Here is the next compound: CCN(CC)c1nc(NCCNC(=O)c2ccc(F)cc2)c2ccccc2n1.O=C(O)C(=O)O
-54

* * *

Organism: Canis familiaris
ASSAY_EXPLANATION: Action potential amplitude at 10 uM concentration on Isolated Canine Purkinje Fibers was determined
Assay type: functional, Canis lupus familiaris, Purkinje fiber
Reported APA values for a set of compounds
State just the number; it will be interpreted in mV.

Record excerpt, results attached:
* CCN(CC)c1nc(NCCNC(=O)c2ccc(F)cc2)c2ccccc2n1.O=C(O)C(=O)O | -15
* CCN(CC)c1nc(NCCNC(=O)c2ccc(OC)cc2)c2ccccc2n1.O=C(O)C(=O)O | -11
* CCN(CC)c1nc(NCCNC(=O)c2cc(O)c(O)c(O)c2)c2ccccc2n1.CS(=O)(=O)O | 0

Which APA reading was recorded for the compound CCN(CC)c1nc(NCCNC(=O)c2ccccc2)c2ccccc2n1.O=C(O)C(=O)O ?
-15

Here is the next compound: CCN(CC)c1nc(NCCNC(=O)c2cc(OC)c(OC)c(OC)c2)c2ccccc2n1
-14.4

Here is the next compound: CCN(CC)c1nc(NCCNC(=O)c2ccc(C(F)(F)F)cc2)c2ccccc2n1.O=C(O)C(=O)O
-23

Here is the next compound: CCN(CC)c1nc(NCCNC(=O)c2ccccc2OC)c2ccccc2n1
-31

* * *

ASSAY_EXPLANATION: Plasma concentration in dogs when measured 1 and 5 hours following initiation of reperfusion at 300 min
Format: ADME, organism-based, Canis lupus familiaris
EXPERIMENTAL_CONDITIONS: dog
RECORDED_METRIC: concentration at 5 h (ng/mL)
State just the number; it will be interpreted in ng/mL.

Which concentration at 5 h reading was recorded for the compound CCN(CC)c1nc(NCCNC(=O)c2cc(O)c(O)c(O)c2)c2ccccc2n1.CS(=O)(=O)O ?
1300
